tested on: SK-MEL-2 melanoma; experiment: NCI tumour cell line growth inhibition, 48 h
ASSAY_METRIC: TGI (µM)
Use µM as the unit, but write only the number.

# example entries with known answers
COMPOUND: CC(C)(C)c1cc(C(O)(C(F)(F)F)C(F)(F)F)c2c(c1)C(C(F)(F)F)(C(F)(F)F)OC(C)(C(C)(C)C)N2 (stereo not given)
TARGET_OF_ASSAY: SK-MEL-2 melanoma
ASSAY_METRIC: TGI
OBS_VALUE: 17.7

COMPOUND: C=CCNc1nc2c(s1)C(=O)c1ccccc1C2=O
TARGET_OF_ASSAY: SK-MEL-2 melanoma
ASSAY_METRIC: TGI
OBS_VALUE: 25.9

Kindly review the next compound as well.
Qu. Can you look up TGI on SK-MEL-2 melanoma for `O=[N+]([O-])c1cc(Cl)c2[nH]c3c(Cl)cc([N+](=O)[O-])cc3c2c1` ?
Ans. 2.19
